test system: TGF-β-stimulated SMAD3 phosphorylation in BEAS-2B cells; test: Cellular ALK5 potency assay, inhibition of TGF-β stimulated pSMAD3 formation in BEAS-2B cells; format: cell-based; conditions: Homo sapiens, inhibition of TGF-β (10 ng/mL) stimulated pSMAD3 formation, 1 hour compound incubation, read-out: BEAS2B pIC50 (converted)

COMPOUND	IC50
Fc1cc(F)c(-c2n[nH]cc2-c2ccc3ncccc3n2)cc1Cl [Compound 6-71]	25.1 to 158 nM
NCCn1cc(-c2cnc3ccc(-c4nc[nH]c4-c4ccc(F)c(F)c4)cc3c2)cn1 [Compound 23-1]	25.1 to 158 nM
Fc1ccc(Cl)cc1-c1nc2ccccn2c1-c1ccc2ncc(-c3cn[nH]c3)cc2n1 [Compound 3-10]	1580 to 10000 nM
CN(C)C1CCN(c2cnc3ccc(-c4c(-c5cc(Cl)ccc5F)nc5ccccn45)cc3c2)C1 (racemic) [Compound 19-7]	200 to 1260 nM

---

System: TGF-β-stimulated SMAD3 phosphorylation in BEAS-2B cells
Assay: Cellular ALK5 potency assay, inhibition of TGF-β stimulated pSMAD3 formation in BEAS-2B cells
Type: cell-based
Conditions: Homo sapiens, inhibition of TGF-β (10 ng/mL) stimulated pSMAD3 formation, 1 hour compound incubation, read-out: BEAS2B pIC50 (converted)
Experimental: Example 255: Cellular ALK5 Potency Assay to Measure pIC50, Inhibition of TGF-β Stimulated pSMAD3 Formation in BEAS-2B Cells The potency of compounds of the present disclosure for inhibition of TGF-β-stimulated SMAD3 phosphorylation was measured in BEAS-2B cells, a human lung epithelial cell line. […] For the assay, BEAS-2B cells were seeded at 7,500 cells/well (25 μL/well) in a 384-well plate and cultured overnight. […] Data are expressed as pIC50 (negative decadic logarithm IC50) values.
Some compounds, each annotated with its measured IC50.

COMPOUND_SMILES	IC50
Fc1ccc(Cl)cc1-c1n[nH]cc1-c1ccc2ncc(N3CCn4nc(N5CCNCC5)cc4C3)cc2n1	200 to 1260 nM
O=C(O)[C@H]1CN(c2cnc3ccc(-c4nc[nH]c4-c4cc(Cl)c(F)cc4F)nc3c2)CCN1	25.1 to 158 nM
CN1CCN(C2CCN(c3cnc4ccc(-c5c[nH]nc5-c5cc(Cl)ccc5F)cc4c3)CC2)CC1	25.1 to 158 nM
NCCn1cc(-c2cnc3ccc(-c4nc[nH]c4-c4cc(Cl)ccc4F)nc3c2)cn1	25.1 to 158 nM

---

Target: recombinant human ALK5 (TGF-βR1) protein (Homo sapiens, UniProt P36897)
Sequence (P36897 34-503): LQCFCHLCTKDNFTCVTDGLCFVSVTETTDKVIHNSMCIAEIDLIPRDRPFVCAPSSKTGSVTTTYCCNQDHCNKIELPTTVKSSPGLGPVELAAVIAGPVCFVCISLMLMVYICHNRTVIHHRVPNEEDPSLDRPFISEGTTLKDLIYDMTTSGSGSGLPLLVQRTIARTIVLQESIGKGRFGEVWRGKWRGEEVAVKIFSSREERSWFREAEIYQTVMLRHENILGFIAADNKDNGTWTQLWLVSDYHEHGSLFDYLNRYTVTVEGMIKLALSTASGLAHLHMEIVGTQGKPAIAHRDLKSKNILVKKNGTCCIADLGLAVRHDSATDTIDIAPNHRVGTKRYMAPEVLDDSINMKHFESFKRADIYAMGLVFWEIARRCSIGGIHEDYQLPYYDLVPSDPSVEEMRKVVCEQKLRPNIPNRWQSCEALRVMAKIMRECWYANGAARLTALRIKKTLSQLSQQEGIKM
Experiment: Biochemical ALK5 (TGF-βR1) assay to measure pKi (LANCE Ultra ULight kinase assay)
Conditions: apparent pKi, converted from pIC50 using the Cheng-Prusoff equation

COMPOUND	Ki
C[C@@H]1CN(CCNc2cnc3ccc(-c4nc[nH]c4-c4cccc(Cl)c4)nc3c2)C[C@H](C)N1	398 to 3160 pM
Fc1ccc(Cl)cc1-c1[nH]cnc1-c1ccc2ncc(N3CCNCC3)cc2c1	398 to 3160 pM
COCc1cccc(-c2n[nH]cc2-c2ccc3ncc(-c4cnn(CC5CNC5)c4)cc3n2)c1	39.8 to 316 pM
Fc1ccc(Cl)cc1-c1n[nH]cc1-c1ccc2ncc(NCC3CNC3)cc2n1	39.8 to 316 pM
CN1CCN(CCNc2cnc3ccc(-c4c[nH]nc4-c4cc(Cl)ccc4F)nc3c2)CC1	39.8 to 316 pM
CNCCn1cc(-c2cnc3ccc(-c4c(-c5cc(Cl)ccc5F)nnn4Cc4cccnc4)cc3c2)cn1	39.8 to 316 pM
Fc1ccc(Cl)cc1-c1n[nH]cc1-c1ccc2ncc(NCC3CCNCC3)cc2n1	≤ 31.6 pM
Fc1ccc(Cl)cc1-c1n[nH]cc1-c1ccc2ncc(-c3cnn4c3CNCC4)cc2n1	≤ 31.6 pM
COCc1cccc(-c2n[nH]cc2-c2ccc3ncc(N4CCC(N5CCN(C)CC5)CC4)cc3n2)c1	398 to 3160 pM
Fc1ccc(Cl)cc1-c1nnn(Cc2ccccc2)c1-c1ccc2ncccc2n1	398 to 3160 pM
O=C(O)Cn1cc(-c2cnc3ccc(-c4c[nH]nc4-c4ccc(F)c(F)c4)nc3c2)cn1	398 to 3160 pM
Fc1ccc(Cl)cc1-c1[nH]cnc1-c1ccc2ncc(-c3nnn4c3CNCC4)cc2n1	39.8 to 316 pM
CC(C)N1CCN(CCNc2cnc3ccc(-c4nc[nH]c4-c4cccc(Cl)c4)cc3c2)CC1	398 to 3160 pM
Fc1ccc(Cl)cc1-c1n[nH]cc1-c1ccc2ncc(N3CCn4nc(Br)nc4C3)cc2n1	398 to 3160 pM
CC(C)N1CCN(CCNc2cnc3ccc(-c4nc[nH]c4-c4cc(Cl)ccc4F)nc3c2)CC1	39.8 to 316 pM
COCc1cccc(-c2n[nH]cc2-c2ccc3ncc(N4CCC(N5CCCC5)CC4)cc3n2)c1	3980 to 31600 pM
CN1C[C@H]2C[C@@H]1CN2c1cnc2ccc(-c3c[nH]nc3-c3cc(Cl)ccc3F)nc2c1 (racemic)	3980 to 31600 pM
COC(=O)[C@H]1CN(c2cnc3ccc(-c4c[nH]nc4-c4cc(Cl)c(F)cc4F)nc3c2)CCN1	398 to 3160 pM
Fc1ccc(Cl)cc1-c1n[nH]cc1-c1ccc2ncc(C3=CCNC3)cc2n1	39.8 to 316 pM
O=C(O)[C@H]1CN(c2cnc3ccc(-c4c[nH]nc4-c4cc(Cl)ccc4F)nc3c2)CCN1	398 to 3160 pM
CC(C)N1CCN(C(C)(C)CNc2cnc3ccc(-c4c[nH]nc4-c4cc(Cl)ccc4F)nc3c2)CC1	3980 to 31600 pM
CN1CCN(C2CCN(c3cnc4ccc(-c5nc[nH]c5-c5cc(Cl)ccc5F)cc4c3)CC2)CC1	39.8 to 316 pM
COC(=O)CC1CN(CCNc2cnc3ccc(-c4nc[nH]c4-c4cc(Cl)ccc4F)nc3c2)CCN1 (stereo not shown)	39.8 to 316 pM
Fc1ccc(Cl)cc1-c1n[nH]cc1-c1ccc2ncc(NCCN3CCNCC3)cc2n1	39.8 to 316 pM
O=C(O)[C@H]1CN(c2cnc3ccc(-c4nc[nH]c4-c4cc(Cl)c(F)cc4F)cc3c2)CCN1	3980 to 31600 pM
NC1CCN(c2cnc3ccc(-c4c[nH]nc4-c4cc(Cl)ccc4F)nc3c2)C1 (stereo not shown)	≤ 31.6 pM
CCN1CCC(N(C)c2cnc3ccc(-c4c[nH]nc4-c4cc(Cl)c(F)cc4F)nc3c2)CC1	398 to 3160 pM
Fc1ccc(Cl)cc1-c1n[nH]cc1-c1ccc2ncc(-c3cn(Cc4cnc5c(c4)CNCC5)nn3)cc2n1	39.8 to 316 pM
Fc1ccc(Cl)cc1-c1n[nH]cc1-c1ccc2ncc(NC3CNC3)cc2n1	39.8 to 316 pM
Fc1cc(F)c(-c2n[nH]cc2-c2ccc3ncc(-c4cnn(CC5CNC5)c4)cc3n2)cc1Cl	39.8 to 316 pM
Fc1ccc(Cl)cc1-c1[nH]nnc1-c1ccc2ncc(-c3cn[nH]c3)cc2c1	39.8 to 316 pM
